target_or_system: DAGLα (hDAGLα-FLAG) (Homo sapiens (Human))
Sequence (Q9Y4D2 whole entry): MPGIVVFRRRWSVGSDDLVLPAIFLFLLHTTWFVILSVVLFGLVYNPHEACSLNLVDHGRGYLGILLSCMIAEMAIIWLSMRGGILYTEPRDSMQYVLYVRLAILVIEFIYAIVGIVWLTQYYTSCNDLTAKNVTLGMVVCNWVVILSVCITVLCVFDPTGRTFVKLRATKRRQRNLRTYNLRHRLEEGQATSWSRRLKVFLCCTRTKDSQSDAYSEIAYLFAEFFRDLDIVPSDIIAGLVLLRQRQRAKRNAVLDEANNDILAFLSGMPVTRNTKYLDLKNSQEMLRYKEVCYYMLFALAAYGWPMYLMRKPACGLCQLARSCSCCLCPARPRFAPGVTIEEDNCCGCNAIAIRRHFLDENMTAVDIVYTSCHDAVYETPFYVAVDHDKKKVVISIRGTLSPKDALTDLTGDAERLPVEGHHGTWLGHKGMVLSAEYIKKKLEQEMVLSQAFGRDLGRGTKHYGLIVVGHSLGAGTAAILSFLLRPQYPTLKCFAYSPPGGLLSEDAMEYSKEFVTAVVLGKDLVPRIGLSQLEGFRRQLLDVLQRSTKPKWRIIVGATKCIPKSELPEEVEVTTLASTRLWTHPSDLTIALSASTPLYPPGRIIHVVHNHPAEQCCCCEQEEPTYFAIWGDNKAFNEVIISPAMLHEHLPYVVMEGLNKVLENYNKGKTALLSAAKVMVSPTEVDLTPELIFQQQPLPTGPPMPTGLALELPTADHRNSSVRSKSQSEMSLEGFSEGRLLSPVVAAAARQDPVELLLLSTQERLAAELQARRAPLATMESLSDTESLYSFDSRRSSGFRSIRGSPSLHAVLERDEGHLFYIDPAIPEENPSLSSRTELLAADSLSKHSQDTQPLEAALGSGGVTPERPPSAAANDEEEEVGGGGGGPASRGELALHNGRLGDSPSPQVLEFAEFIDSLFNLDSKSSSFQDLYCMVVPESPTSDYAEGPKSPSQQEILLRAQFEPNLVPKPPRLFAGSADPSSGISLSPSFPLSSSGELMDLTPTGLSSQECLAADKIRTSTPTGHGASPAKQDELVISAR
assay_info: competitive ABPP, membrane proteome of transfected HEK293T cells
Type: biochemical
reported_conditions: read-out: DAGLα IC50
readout_type: IC50

Record excerpt, results attached:
compound: COc1ccc(-c2cn(C(=O)N3CCCCC3Cc3ccccc3)nn2)cc1 (stereo not drawn)
value_observed: ≤ 400 nM
--
compound: COc1cc(OC)c(-c2ccc(-c3cn(C(=O)N4CCCCC4Cc4ccccc4)nn3)cn2)c(OC)c1 (stereo not drawn)
value_observed: ≤ 400 nM
--
compound: O=C(N1CCCCC1Cc1ccccc1)n1cc(-c2ccc(-c3ccccn3)cc2)nn1 (stereo not drawn)
value_observed: 400 to 2000 nM
--
compound: CC(C)(C)OC(=O)N1CCN(C(=O)n2cc(-c3ccc(OC(F)(F)F)cc3)nn2)C(Cc2ccccc2)C1 (stereo not drawn)
value_observed: ≤ 400 nM
--
compound: O=C(N1CCCCC1Cc1ccccc1)n1cc(-c2ccc(-c3cccnc3)cc2)nn1 (stereo not drawn)
value_observed: ≤ 400 nM

Could you please provide reported IC50 for O=C(N1CCCCC1Cc1ccccc1)n1cc(-c2ccc(-c3c(F)cncc3F)cc2)nn1 (stereo not drawn) ? Thanks! 400 to 2000 nM

Could you please provide reported IC50 for O=C(N1CCCCC1Cc1ccccc1)n1cc(-c2ccc(CN3CCOCC3)cc2)nn1 (stereo not drawn) ? Thanks! ≤ 400 nM

Could you please provide reported IC50 for COc1cnccc1-c1ccc(-c2cn(C(=O)N3CCCCC3Cc3ccccc3)nn2)cc1 (stereo not drawn) ? Thanks! 400 to 2000 nM

Could you please provide reported IC50 for COc1cc(OC)c(-c2ccc(-c3cn(C(=O)N4CCCCC4Cc4ccncc4)nn3)cc2)c(OC)c1 (stereo not drawn) ? Thanks! ≤ 400 nM

----------
Measured pIC50, listed per entry.
target_or_system: DAGLβ (hDAGLβ-FLAG) (Homo sapiens (Human), UniProt Q8NCG7)
Sequence (Q8NCG7 whole entry): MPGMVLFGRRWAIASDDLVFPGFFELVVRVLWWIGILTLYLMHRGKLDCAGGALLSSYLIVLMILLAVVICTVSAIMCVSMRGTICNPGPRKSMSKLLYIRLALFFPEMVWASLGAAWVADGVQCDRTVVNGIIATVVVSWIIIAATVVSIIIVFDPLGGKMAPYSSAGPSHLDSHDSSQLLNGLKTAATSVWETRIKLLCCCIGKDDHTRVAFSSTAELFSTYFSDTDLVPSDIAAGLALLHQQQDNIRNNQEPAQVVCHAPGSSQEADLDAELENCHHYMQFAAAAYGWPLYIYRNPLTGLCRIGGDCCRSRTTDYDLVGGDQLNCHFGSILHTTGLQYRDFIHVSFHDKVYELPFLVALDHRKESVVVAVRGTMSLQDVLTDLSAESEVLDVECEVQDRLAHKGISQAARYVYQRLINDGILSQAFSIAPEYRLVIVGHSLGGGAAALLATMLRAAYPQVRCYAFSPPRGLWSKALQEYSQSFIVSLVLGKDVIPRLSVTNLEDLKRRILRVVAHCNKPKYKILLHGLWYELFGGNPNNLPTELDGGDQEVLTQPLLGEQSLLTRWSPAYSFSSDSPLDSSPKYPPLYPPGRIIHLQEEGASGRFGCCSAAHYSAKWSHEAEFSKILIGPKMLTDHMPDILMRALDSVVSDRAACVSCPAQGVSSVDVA
assay_info: competitive ABPP, membrane proteome of transfected HEK293T cells
Type: biochemical
reported_conditions: read-out: DAGLβ IC50
pIC50: −log10 of the molar value.

Record excerpt, results attached:
molecule: CNC(=O)c1cc(OC)c(-c2ccc(-c3cn(C(=O)N4CCCCC4Cc4ccccc4)nn3)cc2)c(OC)c1 (stereo not drawn)
value_observed: < 5.00
--
molecule: COc1cc(OC)c(-c2cnn(C(=O)N3CCCCC3Cc3ccccc3)n2)c(OC)c1 (stereo not drawn)
value_observed: 5.00 to 5.70
--
molecule: CS(=O)(=O)OCc1ccc(-c2cn(C(=O)N3CCCCC3Cc3ccccc3)nn2)cc1 (stereo not drawn)
value_observed: 5.00 to 5.70
--
molecule: COc1cnnc(OC)c1-c1ccc(-c2cn(C(=O)N3CCCCC3Cc3ccccc3)nn2)cc1 (stereo not drawn)
value_observed: 5.00 to 5.70
--
molecule: O=C(N1CCCCC1Cc1ccccc1)n1cc(-c2ccc(-c3c(Cl)cncc3Cl)cc2)nn1 (stereo not drawn)
value_observed: ≥ 6.40

Could you please provide reported pIC50 for COc1cc(C(=O)N(C)C)cc(OC)c1-c1ccc(-c2cn(C(=O)N3CCCCC3Cc3ccccc3)nn2)cc1 (stereo not drawn) ? Thanks! < 5.00

Could you please provide reported pIC50 for `CC(C)(C)CN(CCc1ccncc1)C(=O)n1ncc(-c2ccc(OC(F)(F)F)cc2)n1` ? Thanks! 5.70 to 6.40

Could you please provide reported pIC50 for `CC(C)(C)CN(CCc1cccnc1)C(=O)n1ncc(-c2ccc(OC(F)(F)F)cc2)n1` ? Thanks! 5.00 to 5.70

Could you please provide reported pIC50 for COc1cc(C(=O)N2CCCC2)cc(OC)c1-c1ccc(-c2cn(C(=O)N3CCCCC3Cc3ccccc3)nn2)cc1 (stereo not drawn) ? Thanks! < 5.00

Could you please provide reported pIC50 for `O=C(N(CCc1ccccc1)CC1CC1)n1ncc(-c2ccc(OC(F)(F)F)cc2)n1` ? Thanks! 5.70 to 6.40

Could you please provide reported pIC50 for CN(C)C(=O)c1ccc(-c2ccc(-c3cn(C(=O)N4CCCCC4Cc4ccccc4)nn3)cc2)cc1 (stereo not drawn) ? Thanks! < 5.00
